Values were extracted from patent US6380254B2.

system: Hepatocytes; experiment: Viability of post-anaerobic hepatocytes (fraction of cytosolic lactate dehydrogenase retained intracellularly); type: cell-based, rat; settings: Rattus norvegicus, Hepatocyte, 1.5 h; single amino carboxylic acid at 5 mM; 90 min anaerobic, then 90 minute aerobic incubation at 37° C.; untreated 0.25; read-out: SURVIVING FRACTION
Rule: viability at 5000 µM below 50% gives criterion met, anything at or above gives criterion not met.

**Q:** Strictly below 50%: is that where viability at 5000 µM of N[C@@H](CO)C(=O)O sits?
**A:** criterion met

**Q:** Strictly below 50%: is that where viability at 5000 µM of NCC(=O)O sits?
**A:** criterion not met

**Q:** Strictly below 50%: is that where viability at 5000 µM of CC(C)[C@H](N)C(=O)O [Valine, valine, reference compound] sits?
**A:** criterion met

**Q:** Strictly below 50%: is that where viability at 5000 µM of N[C@@H](Cc1ccc(O)cc1)C(=O)O [Tyrosine, tyrosine, reference compound] sits?
**A:** criterion met

**Q:** Strictly below 50%: is that where viability at 5000 µM of CC(C)C[C@H](N)C(=O)O [Leucine, leucine, reference compound] sits?
**A:** criterion met

**Q:** Strictly below 50%: is that where viability at 5000 µM of NC(=O)C[C@H](N)C(=O)O sits?
**A:** criterion not met

**Q:** Strictly below 50%: is that where viability at 5000 µM of NC(=O)CC[C@H](N)C(=O)O sits?
**A:** criterion not met

**Q:** Strictly below 50%: is that where viability at 5000 µM of CC[C@H](C)[C@H](N)C(=O)O [Isoleucine, isoleucine, reference compound] sits?
**A:** criterion met
